# ASSAY_TARGET: PARG (Homo sapiens, UniProt Q86W56)
# Sequence (Q86W56 whole entry): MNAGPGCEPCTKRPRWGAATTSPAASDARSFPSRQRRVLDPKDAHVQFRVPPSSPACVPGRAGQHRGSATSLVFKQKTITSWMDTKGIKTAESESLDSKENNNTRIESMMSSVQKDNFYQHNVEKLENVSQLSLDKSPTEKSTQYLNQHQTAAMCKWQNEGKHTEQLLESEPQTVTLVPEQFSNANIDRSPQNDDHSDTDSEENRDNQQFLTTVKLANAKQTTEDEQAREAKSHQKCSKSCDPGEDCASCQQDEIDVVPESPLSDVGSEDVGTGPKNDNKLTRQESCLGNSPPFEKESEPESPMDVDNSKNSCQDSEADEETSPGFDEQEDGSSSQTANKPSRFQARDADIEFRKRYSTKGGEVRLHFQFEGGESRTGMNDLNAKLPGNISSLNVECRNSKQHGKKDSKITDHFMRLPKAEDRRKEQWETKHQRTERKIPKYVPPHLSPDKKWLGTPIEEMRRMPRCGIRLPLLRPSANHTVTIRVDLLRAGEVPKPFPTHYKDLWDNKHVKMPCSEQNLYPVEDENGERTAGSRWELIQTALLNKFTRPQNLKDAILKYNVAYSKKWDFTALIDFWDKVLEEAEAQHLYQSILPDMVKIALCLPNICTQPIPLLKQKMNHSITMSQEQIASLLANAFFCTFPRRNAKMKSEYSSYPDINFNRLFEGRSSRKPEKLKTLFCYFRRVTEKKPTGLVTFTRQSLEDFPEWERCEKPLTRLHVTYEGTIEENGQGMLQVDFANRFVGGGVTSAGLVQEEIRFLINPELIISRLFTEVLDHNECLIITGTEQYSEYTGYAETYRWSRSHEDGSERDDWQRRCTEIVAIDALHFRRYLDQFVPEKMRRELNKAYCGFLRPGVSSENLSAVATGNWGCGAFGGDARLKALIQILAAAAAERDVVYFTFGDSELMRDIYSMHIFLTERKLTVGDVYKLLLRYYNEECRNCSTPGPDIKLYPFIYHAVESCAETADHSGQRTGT
# TEST_SUMMARY: Biochemical assay (PARG, TFMU-ADPr substrate)
# CONDITION_SET: 4 nM PARG, 66.2 uM TFMU-ADPr, 3 min at room temperature

COMPOUND | ASSAY_TARGET | IC50
[2H]c1nc(-c2nnc(C(F)F)s2)n2cc(S(=O)(=O)NC3(C)COC3)c(F)c(N3CCN(C(=O)C(C)C)CC3)c12 [Example 155] | PARG (Homo sapiens, UniProt Q86W56) | < 100 nM
CN1CC(Nc2cc(S(=O)(=O)NC3(C#N)CC3)cn3c(-c4nnc(C(F)F)s4)ncc23)C1 [Example 150] | PARG (Homo sapiens, UniProt Q86W56) | < 100 nM
O=S(=O)(NC1(CF)CC1)c1cc(N2CCC3(CC2)COC3)c2nnc(-c3nnc(C(F)F)s3)n2c1 [Example 104] | PARG (Homo sapiens, UniProt Q86W56) | < 100 nM
N#CC1(NS(=O)(=O)c2cc(N3CCC(CO)(C(F)(F)F)CC3)c3cnc(-c4nnc(C(F)F)s4)n3c2)CC1 [Example 145] | PARG (Homo sapiens, UniProt Q86W56) | 100 to 500 nM
CC(C)[C@@H]1CN(c2cc(S(=O)(=O)NC3(C#N)CC3)cn3c(-c4nnc(C(F)F)s4)ncc23)CCN1C(=O)C1(C)CC1 [Example 96] | PARG (Homo sapiens, UniProt Q86W56) | < 100 nM
Cn1nccc1C1CCC(c2cc(S(=O)(=O)NC3(C#N)CC3)cn3c(-c4nnc(C(F)F)s4)nnc23)C1 (stereo not shown) [Example 378] | PARG (Homo sapiens, UniProt Q86W56) | < 100 nM
CC(C)C[C@@H]1CN(c2cc(S(=O)(=O)NC3(C#N)CC3)cn3c(-c4nnc(C(F)F)s4)ncc23)CCN1C(=O)C1(C)CC1 [Example 97] | PARG (Homo sapiens, UniProt Q86W56) | < 100 nM

---

# ASSAY_TARGET: PARG (Homo sapiens)
# TEST_SUMMARY: Biochemical assay (PARG, TFMU-ADPr substrate)
# CONDITION_SET: PARG, TFMU-ADPr substrate

COMPOUND | IC50 (nM)
CC1(C(=O)N2CCN(c3cc(S(=O)(=O)NC4(C#N)CC4)cn4c(-c5nnc(C(F)(F)F)s5)ncc34)CC2)COC1 [Example 299] | 24
CC1(NS(=O)(=O)c2cc(N3CCN(C(=O)C4CCOC4)CC3)c3cnc(-c4nnc(C(F)(F)F)s4)n3c2)CC1 (stereo not shown) [Example 293] | 9.12
C[C@@H]1CN(c2cc(S(=O)(=O)NC3(C)COC3)cn3c(-c4nnc(C(F)F)s4)ncc23)C[C@@H](C)N1 [Example 180] | 5.62
COC1(C)CCN(c2cc(S(=O)(=O)NC3(CF)CC3)cn3c(-c4nnc(C(F)F)s4)nnc23)CC1 [Example 111] | 0.37
CC1(NS(=O)(=O)c2cc(N3CCN(C(=O)C(O)C(F)(F)F)CC3)c3cnc(-c4nnc(C(F)(F)F)s4)n3c2)CC1 (stereo not shown) [Example 282] | 20
N#CC1(NS(=O)(=O)c2cc(N3CCC4(CC3)COC4)c3cnc(-c4nnc(C(F)F)s4)n3c2)CC1 [Example 39] | 2.72
COCC1CN(c2cc(S(=O)(=O)NC3(C)COC3)cn3c(-c4nnc(C(F)F)s4)nc(Cl)c23)CCN1 (stereo not shown) [Example 127] | 1.01
